Tested on: NCI-H460
procedure.text: relative viability (nuclei count vs DMSO), 5 days (fraction); higher = more cells survive
test.context: first compound 0.02 µM
A collection of compounds and their measured relative viability
quantity.measured: relative viability

compound	target.or.system	reported.measurement
CC(=O)O[C@@]12CO[C@@H]1C[C@H](O)[C@@]1(C)C(=O)[C@H](O)C3=C(C)[C@@H](OC(=O)[C@H](O)[C@@H](NC(=O)OC(C)(C)C)c4ccccc4)C[C@@](O)([C@@H](OC(=O)c4ccccc4)[C@H]21)C3(C)C [Docetaxel] + CC1(C)CCC(c2ccc(Cl)cc2)=C(CN2CCN(c3ccc(C(=O)NS(=O)(=O)c4ccc(N[C@H](CCN5CCOCC5)CSc5ccccc5)c(S(=O)(=O)C(F)(F)F)c4)cc3)CC2)C1 [Navitoclax] (partner 0.5 µM)	NCI-H460	0.0104
CC(=O)O[C@@]12CO[C@@H]1C[C@H](O)[C@@]1(C)C(=O)[C@H](O)C3=C(C)[C@@H](OC(=O)[C@H](O)[C@@H](NC(=O)OC(C)(C)C)c4ccccc4)C[C@@](O)([C@@H](OC(=O)c4ccccc4)[C@H]21)C3(C)C [Docetaxel] + CS(=O)(=O)N1CCN(Cc2cc3nc(-c4cccc5[nH]ncc45)nc(N4CCOCC4)c3s2)CC1 [Pictilisib] (partner 1 µM)	NCI-H460	0.0373
CC(=O)O[C@@]12CO[C@@H]1C[C@H](O)[C@@]1(C)C(=O)[C@H](O)C3=C(C)[C@@H](OC(=O)[C@H](O)[C@@H](NC(=O)OC(C)(C)C)c4ccccc4)C[C@@](O)([C@@H](OC(=O)c4ccccc4)[C@H]21)C3(C)C [Docetaxel] + O=C(CCCCCCC(=O)Nc1ccccc1)NO [Vorinostat] (partner 1 µM)	NCI-H460	0.0166
CC(=O)O[C@@]12CO[C@@H]1C[C@H](O)[C@@]1(C)C(=O)[C@H](O)C3=C(C)[C@@H](OC(=O)[C@H](O)[C@@H](NC(=O)OC(C)(C)C)c4ccccc4)C[C@@](O)([C@@H](OC(=O)c4ccccc4)[C@H]21)C3(C)C [Docetaxel] + Cc1cc(Nc2cc(N3CCN(C)CC3)nc(Sc3ccc(NC(=O)C4CC4)cc3)n2)n[nH]1 [Tozasertib] (partner 0.1 µM)	NCI-H460	0.0207
